# subject of test: Endothelial PAS domain-containing protein 1 (Homo sapiens)
# Sequence (Q99814 whole entry, the tested form may be a part): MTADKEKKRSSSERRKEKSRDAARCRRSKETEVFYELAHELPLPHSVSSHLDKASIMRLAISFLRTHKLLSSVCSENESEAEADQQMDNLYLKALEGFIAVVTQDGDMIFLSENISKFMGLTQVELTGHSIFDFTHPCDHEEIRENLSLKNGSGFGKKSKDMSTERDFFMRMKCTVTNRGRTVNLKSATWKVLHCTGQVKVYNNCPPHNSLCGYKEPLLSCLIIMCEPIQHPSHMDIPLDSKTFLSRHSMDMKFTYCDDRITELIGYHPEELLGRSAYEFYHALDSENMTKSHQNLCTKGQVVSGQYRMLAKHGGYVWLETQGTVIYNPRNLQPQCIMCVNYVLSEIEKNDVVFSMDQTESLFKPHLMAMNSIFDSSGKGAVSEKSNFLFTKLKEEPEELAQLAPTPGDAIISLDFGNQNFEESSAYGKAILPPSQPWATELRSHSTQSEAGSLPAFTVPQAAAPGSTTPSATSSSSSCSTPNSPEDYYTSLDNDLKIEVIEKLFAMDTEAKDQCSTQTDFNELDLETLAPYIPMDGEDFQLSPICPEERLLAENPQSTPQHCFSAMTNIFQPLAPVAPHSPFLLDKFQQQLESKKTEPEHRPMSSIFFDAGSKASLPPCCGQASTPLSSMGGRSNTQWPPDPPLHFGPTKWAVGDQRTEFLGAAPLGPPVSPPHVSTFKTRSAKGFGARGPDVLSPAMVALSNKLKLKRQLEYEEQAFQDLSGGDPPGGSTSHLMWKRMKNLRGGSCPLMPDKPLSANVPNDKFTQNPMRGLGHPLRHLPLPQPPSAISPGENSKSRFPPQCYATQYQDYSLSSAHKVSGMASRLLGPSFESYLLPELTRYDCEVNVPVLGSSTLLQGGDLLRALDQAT
# experimental details: VEGF ELISA Assay
experimental endpoint: EC50 (nM)
Give the value, in units of nM, as a plain number.

Query: EC50; subject: OC1c2c(ccc(Oc3cc(F)cc(F)c3)c2C(F)F)C(F)(F)C1(F)F (stereo unspecified)
4
